The next entries give measured log10 IC50 for Epidermal growth factor receptor (Homo sapiens).
readout_type: log10 IC50 (log10 of the value in µM)

>>> observed("O=C(Cc1cccc(Br)c1)NS(=O)(=O)c1ccccc1")
1.39
>>> observed("Cc1ncc([N+](=O)[O-])n1CC(=O)NS(=O)(=O)c1ccc(F)cc1")
-0.41
>>> observed("O=C(Cc1cccc(Br)c1)NS(=O)(=O)c1ccc(F)cc1")
1.27
>>> observed("O=C(Cc1ccc(Br)cc1)NS(=O)(=O)c1ccc(Cl)cc1")
1.20
>>> observed("O=C(Cc1ccc(Cl)cc1)NS(=O)(=O)c1ccccc1")
1.08
>>> observed("O=C(Cc1ccc(Br)cc1)NS(=O)(=O)c1ccc(F)cc1")
1.16

* * *

target: UniProtKB P04626
Sequence (P04626 whole entry): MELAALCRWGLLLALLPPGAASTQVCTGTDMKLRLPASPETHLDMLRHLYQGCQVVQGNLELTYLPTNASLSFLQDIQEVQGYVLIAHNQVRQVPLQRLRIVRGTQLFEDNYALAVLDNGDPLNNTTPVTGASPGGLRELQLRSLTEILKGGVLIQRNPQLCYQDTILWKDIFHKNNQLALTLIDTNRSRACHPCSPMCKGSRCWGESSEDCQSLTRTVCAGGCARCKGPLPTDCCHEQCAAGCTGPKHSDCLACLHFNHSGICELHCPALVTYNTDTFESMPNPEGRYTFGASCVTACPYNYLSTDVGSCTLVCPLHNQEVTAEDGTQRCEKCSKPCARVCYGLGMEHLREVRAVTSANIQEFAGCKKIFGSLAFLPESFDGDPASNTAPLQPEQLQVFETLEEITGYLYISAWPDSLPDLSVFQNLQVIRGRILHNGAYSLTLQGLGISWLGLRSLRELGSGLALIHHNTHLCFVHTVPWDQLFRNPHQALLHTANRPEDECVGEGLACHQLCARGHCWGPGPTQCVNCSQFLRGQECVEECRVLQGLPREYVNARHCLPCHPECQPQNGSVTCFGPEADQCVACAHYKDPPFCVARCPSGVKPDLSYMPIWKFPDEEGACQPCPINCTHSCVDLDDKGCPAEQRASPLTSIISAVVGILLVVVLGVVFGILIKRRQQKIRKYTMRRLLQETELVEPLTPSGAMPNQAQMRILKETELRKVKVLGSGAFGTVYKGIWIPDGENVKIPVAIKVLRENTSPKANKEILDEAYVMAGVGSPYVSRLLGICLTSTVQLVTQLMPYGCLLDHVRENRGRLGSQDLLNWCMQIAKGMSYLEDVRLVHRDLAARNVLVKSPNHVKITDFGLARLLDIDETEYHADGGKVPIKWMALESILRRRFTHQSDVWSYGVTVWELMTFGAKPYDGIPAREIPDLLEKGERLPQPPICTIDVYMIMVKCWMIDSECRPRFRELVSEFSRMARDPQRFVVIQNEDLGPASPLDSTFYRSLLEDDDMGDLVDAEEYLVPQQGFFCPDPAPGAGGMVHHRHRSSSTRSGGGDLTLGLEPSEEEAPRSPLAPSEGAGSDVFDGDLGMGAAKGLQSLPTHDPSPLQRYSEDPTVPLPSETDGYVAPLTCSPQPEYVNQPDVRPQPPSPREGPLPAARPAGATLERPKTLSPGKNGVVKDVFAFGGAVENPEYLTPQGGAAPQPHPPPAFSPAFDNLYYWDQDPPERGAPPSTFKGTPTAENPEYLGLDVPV
pIC50: −log10 of the molar value.
readout_type: pIC50

>>> observed("O=C(Cc1cccc(Br)c1)NS(=O)(=O)c1ccccc1")
4.58
>>> observed("Cc1ccc(S(=O)(=O)NC(=O)Cc2cccc(Br)c2)cc1")
4.55
>>> observed("Cc1ncc([N+](=O)[O-])n1CC(=O)NS(=O)(=O)c1ccc(Cl)cc1")
5.47
>>> observed("Cc1ncc([N+](=O)[O-])n1CC(=O)NS(=O)(=O)c1ccc(F)cc1")
5.82
>>> observed("COc1ccc(CC(=O)NS(=O)(=O)c2ccc(F)cc2)cc1")
4.63
>>> observed("O=C(Cc1ccc(Br)cc1)NS(=O)(=O)c1ccc(Br)cc1")
4.70
>>> observed("Cc1ccc(S(=O)(=O)NC(=O)Cc2ccc(Br)cc2)cc1")
4.69
>>> observed("Cc1ncc([N+](=O)[O-])n1CC(=O)NS(=O)(=O)c1ccccc1")
5.38
>>> observed("O=C(Cc1ccc(Cl)cc1)NS(=O)(=O)c1ccc(Br)cc1")
4.87
>>> observed("COc1ccc(CC(=O)NS(=O)(=O)c2ccc(Br)cc2)cc1")
4.60
>>> observed("O=C(Cc1ccc(Br)cc1)NS(=O)(=O)c1ccc(Cl)cc1")
4.72

* * *

Reported log10 of IC50 values for a set of compounds
biological target: Epidermal growth factor receptor (Homo sapiens, UniProt P00533);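 note: recombinant His6-tagged EGFR autophosphorylation, read by DELFIA time-resolved fluorimetry after a 10 min preincubation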
Sequence (P00533 whole entry): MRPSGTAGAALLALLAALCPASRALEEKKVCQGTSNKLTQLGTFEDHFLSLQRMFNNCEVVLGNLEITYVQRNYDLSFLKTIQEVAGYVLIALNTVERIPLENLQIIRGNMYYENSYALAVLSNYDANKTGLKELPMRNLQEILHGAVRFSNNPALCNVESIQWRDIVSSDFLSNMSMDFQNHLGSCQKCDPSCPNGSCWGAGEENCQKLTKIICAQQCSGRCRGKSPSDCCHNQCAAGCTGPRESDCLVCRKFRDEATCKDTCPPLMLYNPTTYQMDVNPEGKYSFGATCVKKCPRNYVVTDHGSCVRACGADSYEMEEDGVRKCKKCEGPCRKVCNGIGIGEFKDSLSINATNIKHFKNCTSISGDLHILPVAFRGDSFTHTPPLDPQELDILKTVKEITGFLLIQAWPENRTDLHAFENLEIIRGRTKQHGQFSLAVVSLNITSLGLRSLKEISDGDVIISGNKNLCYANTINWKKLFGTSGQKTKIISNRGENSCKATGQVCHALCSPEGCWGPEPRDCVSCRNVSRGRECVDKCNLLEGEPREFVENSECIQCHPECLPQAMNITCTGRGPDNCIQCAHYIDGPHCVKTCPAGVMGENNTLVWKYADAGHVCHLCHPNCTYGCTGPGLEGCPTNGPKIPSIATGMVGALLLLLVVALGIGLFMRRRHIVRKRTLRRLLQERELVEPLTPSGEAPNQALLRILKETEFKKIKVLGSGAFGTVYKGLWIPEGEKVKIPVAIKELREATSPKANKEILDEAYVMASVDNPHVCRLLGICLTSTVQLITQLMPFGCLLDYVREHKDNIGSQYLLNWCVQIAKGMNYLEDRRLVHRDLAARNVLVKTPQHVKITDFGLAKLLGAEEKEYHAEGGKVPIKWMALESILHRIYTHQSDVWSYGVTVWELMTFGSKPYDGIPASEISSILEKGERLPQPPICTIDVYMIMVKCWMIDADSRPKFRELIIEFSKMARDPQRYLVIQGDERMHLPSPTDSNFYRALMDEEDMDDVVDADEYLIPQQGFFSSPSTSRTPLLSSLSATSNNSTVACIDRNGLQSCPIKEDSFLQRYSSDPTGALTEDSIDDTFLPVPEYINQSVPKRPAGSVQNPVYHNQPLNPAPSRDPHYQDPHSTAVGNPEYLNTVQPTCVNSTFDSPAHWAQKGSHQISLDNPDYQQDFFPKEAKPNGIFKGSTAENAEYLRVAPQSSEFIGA
readout_type: log10 of IC50 (log10 of the value in µM)

>>> observed("Cc1ccc(S(=O)(=O)NC(=O)Cc2ccc(Cl)cc2)cc1")
1.14
>>> observed("O=C(Cc1ccc(Cl)cc1)NS(=O)(=O)c1ccc(Br)cc1")
1.05
>>> observed("O=C(Cc1ccc(F)cc1)NS(=O)(=O)c1ccc(F)cc1")
0.71
>>> observed("O=C(Cc1cccc(Br)c1)NS(=O)(=O)c1ccc(Br)cc1")
1.39
>>> observed("COc1ccc(CC(=O)NS(=O)(=O)c2ccc(C)cc2)cc1")
1.59
>>> observed("Cc1ncc([N+](=O)[O-])n1CC(=O)NS(=O)(=O)c1ccc(Br)cc1")
0.34
>>> observed("COc1ccc(CC(=O)NS(=O)(=O)c2ccccc2)cc1")
1.42
>>> observed("O=C(Cc1cccc(Br)c1)NS(=O)(=O)c1ccc(Cl)cc1")
1.33
>>> observed("COc1ccc(CC(=O)NS(=O)(=O)c2ccc(Br)cc2)cc1")
1.38
>>> observed("O=C(Cc1ccc(Cl)cc1)NS(=O)(=O)c1ccc(Cl)cc1")
1.01
>>> observed("O=C(Cc1ccc(F)cc1)NS(=O)(=O)c1ccccc1")
0.83
